- Species: Rattus norvegicus
- Method Summary: Compound is evaluated for inhibitory effect on the generation of Prostaglandin E2 (PGE2) from rat synovial cells
- Type: functional, cell-based
Let's look at some compounds and their measured pIC50.
Note on pIC50: it is the negative log10 of concentration, concentration in mol/L.

**Q:** Quick one: give measured pIC50 for CON1CC/C(=C\c2cc(C(C)(C)C)c(O)c(C(C)(C)C)c2)C1=O [E-5110]
**A:** 7.52

**Q:** Quick one: give measured pIC50 for "CC(C)(C)c1cc(/C=C2\CCNC2=O)cc(C(C)(C)C)c1O"
**A:** 7.30

**Q:** Quick one: give measured pIC50 for CN1C(C(=O)Nc2ccccn2)=C(O)c2ccccc2S1(=O)=O [PIROXICAM]
**A:** 7.00

**Q:** Quick one: give measured pIC50 for "CCN1CC/C(=C\c2cc(C(C)(C)C)c(O)c(C(C)(C)C)c2)C1=O"
**A:** 7.52

**Q:** Quick one: give measured pIC50 for "CN1CC/C(=C\c2cc(C(C)(C)C)c(O)c(C(C)(C)C)c2)C1=O"
**A:** 7.30

Others:
**Q:** Quick one: give measured pIC50 for "CC(=O)N1CC/C(=C\c2cc(C(C)(C)C)c(O)c(C(C)(C)C)c2)C1=O"
**A:** 6.70

====

- System: Rattus norvegicus
- Method Summary: Compound was evaluated for the inhibition of adjuvant-induced arthritis model in rats at a dose of 3 mg/kg
- Format: functional
Observed Property: inhibition in vivo at 3 mg/kg (%)
Answer with a number only, understood to be in %.

Below, each entry is followed by its recorded inhibition in vivo at 3 mg/kg result.
**Q:** Quick one: give measured inhibition in vivo at 3 mg/kg for CON1CC/C(=C\c2cc(C(C)(C)C)c(O)c(C(C)(C)C)c2)C1=O [E-5110]
**A:** 76

**Q:** Quick one: give measured inhibition in vivo at 3 mg/kg for "CC(C)(C)c1cc(/C=C2\CCNC2=O)cc(C(C)(C)C)c1O"
**A:** 66

**Q:** Quick one: give measured inhibition in vivo at 3 mg/kg for COc1ccc2c(c1)c(CC(=O)O)c(C)n2C(=O)c1ccc(Cl)cc1 [INDOMETHACIN]
**A:** 84

**Q:** Quick one: give measured inhibition in vivo at 3 mg/kg for CN1C(C(=O)Nc2ccccn2)=C(O)c2ccccc2S1(=O)=O [PIROXICAM]
**A:** 85

**Q:** Quick one: give measured inhibition in vivo at 3 mg/kg for "CN1CC/C(=C\c2cc(C(C)(C)C)c(O)c(C(C)(C)C)c2)C1=O"
**A:** 58

Others:
**Q:** Quick one: give measured inhibition in vivo at 3 mg/kg for "CC(=O)N1CC/C(=C\c2cc(C(C)(C)C)c(O)c(C(C)(C)C)c2)C1=O"
**A:** 74

**Q:** Quick one: give measured inhibition in vivo at 3 mg/kg for "CCN1CC/C(=C\c2cc(C(C)(C)C)c(O)c(C(C)(C)C)c2)C1=O"
**A:** 44
